Here, each record is paired with measured TL1A Binding Level (Late) data.
SYSTEM_NAME: T1, human TL1A extracellular domain with N-terminal HIS and FLAG tag (human, UniProt O95150 72-251)
T1 construct: the whole entry is named
T1 sequence: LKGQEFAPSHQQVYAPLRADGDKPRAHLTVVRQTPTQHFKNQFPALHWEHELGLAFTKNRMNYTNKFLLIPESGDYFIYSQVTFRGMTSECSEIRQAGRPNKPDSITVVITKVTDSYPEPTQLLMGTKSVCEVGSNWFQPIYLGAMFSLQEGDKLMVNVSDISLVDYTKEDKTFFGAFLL
PROTOCOL: SPR Run 5, Ab from supernatant captured on Protein A, TL1A 5 ug/mL, timepoint 220
Your answer should be a plain number; it is taken to be in RU.

Worked cases, TL1A Binding Level (Late) given:
>  <BINDER>
320-384 (antibody, human IgG1, name in Kabat numbering, V domains shown, human IgG1, lambda) VH: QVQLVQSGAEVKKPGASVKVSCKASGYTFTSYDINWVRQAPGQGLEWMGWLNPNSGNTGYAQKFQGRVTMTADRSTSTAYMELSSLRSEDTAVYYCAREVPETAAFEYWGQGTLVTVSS VL: QSVLTQPPSVSGAPGQRVTISCTSSSSDIGAGLGVHWYQQLPGTAPKLLIEGYYNRPSGVPDRFSGSKSGTSASLTITGLLPEDEGDYYCQSYDGTLSAHFGGGTKLTVLG

>  <MEAS_VALUE>
2

$$$$
>  <BINDER>
320-427 (antibody, human IgG1, name in Kabat numbering, V domains shown, human IgG1, lambda) VH: QVQLVQSGAEVKKPGASVKVSCKASGYTFKSYDINWVRQAPGQGLEWMGWLNPNSGNTGYAQKFQGRVTMTADRSTSTAYMELSSLRSEDTAVYYCAREVPETAAFEYWGQGTLVTVSS VL: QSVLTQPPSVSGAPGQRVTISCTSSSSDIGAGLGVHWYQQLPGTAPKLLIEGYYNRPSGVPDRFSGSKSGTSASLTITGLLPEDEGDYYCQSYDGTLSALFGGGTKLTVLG

>  <MEAS_VALUE>
10

$$$$

Could you now look at the following binder, please?
query: // returns reported TL1A Binding Level (Late) for input 320-412 (antibody, human IgG1, name in Kabat numbering, V domains shown, human IgG1, lambda) VH: QVQLVQSGAEVKKPGASVKVSCKASGYYFTSYDINWVRQAPGQGLEWMGWLNPNSGNTGYAQKFQGRVTMTADRSTSTAYMELSSLRSEDTAVYYCAREVPETAAFEYWGQGTLVTVSS VL: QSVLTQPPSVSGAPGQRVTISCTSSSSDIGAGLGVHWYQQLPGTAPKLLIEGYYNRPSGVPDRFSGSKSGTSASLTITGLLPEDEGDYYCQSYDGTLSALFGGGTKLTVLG
result: 9

Hello, the source for this data is patent US20170081400A1, in case you need it.
